Quick record of MIC values for E. coli.
Test Readout: MIC (µg/mL)

Compound	Measured Number
O=C1C(Cl)C(c2ccc[nH]2)N1c1nc(-c2cc(Cl)cc3c2-c2ccc(Cl)cc2C3)cs1 (centres unmarked) [6l]	31.2
COc1cc(C2C(Cl)C(=O)N2c2nc(-c3cc(Cl)cc4c3-c3ccc(Cl)cc3C4)cs2)ccc1O (centres unmarked) [6h]	31.2
O=C1C(Cl)C(c2ccco2)N1c1nc(-c2cc(Cl)cc3c2-c2ccc(Cl)cc2C3)cs1 (centres unmarked) [6j]	31.2
CNC(C)C1CCC(N)C(OC2C(N)CC(N)C(OC3OCC(C)(O)C(NC)C3O)C2O)O1 (centres unmarked) [Gentamicin, reference compound]	0.3
O=C1C(Cl)C(c2ccnc3ccccc23)N1c1nc(-c2cc(Cl)cc3c2-c2ccc(Cl)cc2C3)cs1 (centres unmarked) [6n]	31.2

###

Test system: Pseudomonas aeruginosa (P. aeruginosa), multidrug resistant clinical isolate
Experiment: agar well diffusion assay
Type: cell-based
Settings: 24 h, 500 µg/mL of tested compound

Compound	zone of inhibition at 500 µg/mL [mm]
O=C1C(Cl)C(c2ccc(Br)cc2)N1c1nc(-c2cc(Cl)cc3c2-c2ccc(Cl)cc2C3)cs1 (stereo not shown)	10
O=C1C(Cl)C(c2ccc[nH]2)N1c1nc(-c2cc(Cl)cc3c2-c2ccc(Cl)cc2C3)cs1 (stereo not shown)	8
O=C1CSC(c2ccco2)N1c1nc(-c2cc(Cl)cc3c2-c2ccc(Cl)cc2C3)cs1 (stereo not shown)	8
COc1cc(C2C(Cl)C(=O)N2c2nc(-c3cc(Cl)cc4c3-c3ccc(Cl)cc3C4)cs2)ccc1O (stereo not shown)	8
O=C1C(Cl)C(c2ccnc3ccccc23)N1c1nc(-c2cc(Cl)cc3c2-c2ccc(Cl)cc2C3)cs1 (stereo not shown)	13
O=C1C(Cl)C(c2cccs2)N1c1nc(-c2cc(Cl)cc3c2-c2ccc(Cl)cc2C3)cs1 (stereo not shown)	11
O=C1C(Cl)C(c2ccc(Cl)cc2)N1c1nc(-c2cc(Cl)cc3c2-c2ccc(Cl)cc2C3)cs1 (stereo not shown)	10

###

Item-by-item account of melting point

Compound	melting point
COc1ccc(C2C(Cl)C(=O)N2c2nc(-c3cc(Cl)cc4c3-c3ccc(Cl)cc3C4)cs2)cc1 (stereo not drawn)	110 to 112 °C
O=C1CSC(c2ccncc2)N1c1nc(-c2cc(Cl)cc3c2-c2ccc(Cl)cc2C3)cs1 (stereo not drawn)	110 to 112 °C
O=C1C(Cl)C(c2ccnc3ccccc23)N1c1nc(-c2cc(Cl)cc3c2-c2ccc(Cl)cc2C3)cs1 (stereo not drawn)	175 to 177 °C

###

Tested on: A549 human lung cancer cells
Experiment: cell viability assay (MTT)
Type: cell-based
Settings: 500 µg/mL, 24 h, read-out: Validity (%) for sample concentrations (µg/mL) 500
Test Readout: viability at 500 µg/mL (%)

Compound	Measured Number
O=C1CSC(C=Cc2ccccc2)N1c1nc(-c2cc(Cl)cc3c2-c2ccc(Cl)cc2C3)cs1 (centres unmarked) [5i]	63.2
O=C1CSC(c2ccc[nH]2)N1c1nc(-c2cc(Cl)cc3c2-c2ccc(Cl)cc2C3)cs1 (centres unmarked) [5l]	51.9
O=C1CSC(c2ccco2)N1c1nc(-c2cc(Cl)cc3c2-c2ccc(Cl)cc2C3)cs1 (centres unmarked) [5j]	71.4
O=C1C(Cl)C(c2ccc(Br)cc2)N1c1nc(-c2cc(Cl)cc3c2-c2ccc(Cl)cc2C3)cs1 (centres unmarked) [6d]	20.4
O=C1C(Cl)C(c2cccs2)N1c1nc(-c2cc(Cl)cc3c2-c2ccc(Cl)cc2C3)cs1 (centres unmarked) [6k]	28.7
O=C1CSC(c2ccnc3ccccc23)N1c1nc(-c2cc(Cl)cc3c2-c2ccc(Cl)cc2C3)cs1 (centres unmarked) [5n]	27.3
COc1cc(C2C(Cl)C(=O)N2c2nc(-c3cc(Cl)cc4c3-c3ccc(Cl)cc3C4)cs2)ccc1O (centres unmarked) [6h]	33
COc1ccc(C2SCC(=O)N2c2nc(-c3cc(Cl)cc4c3-c3ccc(Cl)cc3C4)cs2)cc1 (centres unmarked) [5b]	44.2

###

System: A549 human lung cancer cells
Experiment: cell viability assay (MTT)
Type: cell-based
Settings: 62.50 µg/mL, 24 h, read-out: Validity (%) for sample concentrations (µg/mL) 62.50
For each record, check the reported viability at 62.5 µg/mL: if it is below 80% write 1 (yes), else write 0 (no).

Molecule	Assigned Class
O=C1CSC(c2ccc([N+](=O)[O-])cc2)N1c1nc(-c2cc(Cl)cc3c2-c2ccc(Cl)cc2C3)cs1 (centres unmarked) [5f]	0 (no)
COc1cc(C2C(Cl)C(=O)N2c2nc(-c3cc(Cl)cc4c3-c3ccc(Cl)cc3C4)cs2)ccc1O (centres unmarked) [6h]	1 (yes)
O=C1CSC(c2cccs2)N1c1nc(-c2cc(Cl)cc3c2-c2ccc(Cl)cc2C3)cs1 (centres unmarked) [5k]	0 (no)
O=C1CSC(C=Cc2ccccc2)N1c1nc(-c2cc(Cl)cc3c2-c2ccc(Cl)cc2C3)cs1 (centres unmarked) [5i]	0 (no)
O=C1C(Cl)C(c2ccc[nH]2)N1c1nc(-c2cc(Cl)cc3c2-c2ccc(Cl)cc2C3)cs1 (centres unmarked) [6l]	1 (yes)
O=C1C(Cl)C(c2ccccc2)N1c1nc(-c2cc(Cl)cc3c2-c2ccc(Cl)cc2C3)cs1 (centres unmarked) [6a]	1 (yes)
O=C1C(Cl)C(c2cccs2)N1c1nc(-c2cc(Cl)cc3c2-c2ccc(Cl)cc2C3)cs1 (centres unmarked) [6k]	1 (yes)
CN(C)c1ccc(C2SCC(=O)N2c2nc(-c3cc(Cl)cc4c3-c3ccc(Cl)cc3C4)cs2)cc1 (centres unmarked) [5e]	1 (yes)
O=C1C(Cl)C(c2ccco2)N1c1nc(-c2cc(Cl)cc3c2-c2ccc(Cl)cc2C3)cs1 (centres unmarked) [6j]	1 (yes)
COc1cc(C2SCC(=O)N2c2nc(-c3cc(Cl)cc4c3-c3ccc(Cl)cc3C4)cs2)ccc1O (centres unmarked) [5h]	0 (no)
COc1ccc(C2SCC(=O)N2c2nc(-c3cc(Cl)cc4c3-c3ccc(Cl)cc3C4)cs2)cc1 (centres unmarked) [5b]	1 (yes)
O=C1C(Cl)C(c2ccc(Br)cc2)N1c1nc(-c2cc(Cl)cc3c2-c2ccc(Cl)cc2C3)cs1 (centres unmarked) [6d]	1 (yes)
O=C1CSC(c2ccco2)N1c1nc(-c2cc(Cl)cc3c2-c2ccc(Cl)cc2C3)cs1 (centres unmarked) [5j]	0 (no)

###

System: WI-38 human normal fibroblast cells
Experiment: cell viability assay (MTT)
Format: cell-based
Settings: 250 µg/mL, 24 h, read-out: Validity (%) for sample concentrations (µg/mL) 250
Catalogue of molecules with associated viability at 250 µg/mL
Test Readout: viability at 250 µg/mL (%)

Molecule	Tgt	Test Readout	Measured Number
O=C(O)c1ccc(C2SCC(=O)N2c2nc(-c3cc(Cl)cc4c3-c3ccc(Cl)cc3C4)cs2)cc1 (centres unmarked)	WI-38 human normal fibroblast cells	viability at 250 µg/mL	85.8
O=C1C(Cl)C(c2ccnc3ccccc23)N1c1nc(-c2cc(Cl)cc3c2-c2ccc(Cl)cc2C3)cs1 (centres unmarked)	WI-38 human normal fibroblast cells	viability at 250 µg/mL	43.3
O=C1C(Cl)C(c2ccc(Cl)cc2)N1c1nc(-c2cc(Cl)cc3c2-c2ccc(Cl)cc2C3)cs1 (centres unmarked)	WI-38 human normal fibroblast cells	viability at 250 µg/mL	59.5
CN(C)c1ccc(C2SCC(=O)N2c2nc(-c3cc(Cl)cc4c3-c3ccc(Cl)cc3C4)cs2)cc1 (centres unmarked)	WI-38 human normal fibroblast cells	viability at 250 µg/mL	69.3
CN(C)c1ccc(C2C(Cl)C(=O)N2c2nc(-c3cc(Cl)cc4c3-c3ccc(Cl)cc3C4)cs2)cc1 (centres unmarked)	WI-38 human normal fibroblast cells	viability at 250 µg/mL	38.6
O=C1C(Cl)C(c2ccc([N+](=O)[O-])cc2)N1c1nc(-c2cc(Cl)cc3c2-c2ccc(Cl)cc2C3)cs1 (centres unmarked)	WI-38 human normal fibroblast cells	viability at 250 µg/mL	32.3
O=C1CSC(c2ccc[nH]2)N1c1nc(-c2cc(Cl)cc3c2-c2ccc(Cl)cc2C3)cs1 (centres unmarked)	WI-38 human normal fibroblast cells	viability at 250 µg/mL	48.1
O=C(O)c1ccc(C2C(Cl)C(=O)N2c2nc(-c3cc(Cl)cc4c3-c3ccc(Cl)cc3C4)cs2)cc1 (centres unmarked)	WI-38 human normal fibroblast cells	viability at 250 µg/mL	35.7

###

Test system: WI-38 human normal fibroblast cells
Experiment: cell viability assay (MTT)
Assay type: cell-based
Settings: 250 µg/mL, 24 h, read-out: Validity (%) for sample concentrations (µg/mL) 250
Test Readout: viability at 250 µg/mL (%)

Compound	Unit Spec	Measured Number
COc1cc(C2C(Cl)C(=O)N2c2nc(-c3cc(Cl)cc4c3-c3ccc(Cl)cc3C4)cs2)ccc1O (stereo not drawn)	%	51.8
O=C1CSC(C=Cc2ccccc2)N1c1nc(-c2cc(Cl)cc3c2-c2ccc(Cl)cc2C3)cs1 (stereo not drawn)	%	63.1
COc1cc(C2SCC(=O)N2c2nc(-c3cc(Cl)cc4c3-c3ccc(Cl)cc3C4)cs2)ccc1O (stereo not drawn)	%	72.8

These measurements were taken from paper PMC7315563.
